These measurements were taken from ChEMBL document CHEMBL3797078.

experimental target: Leucine-rich repeat serine/threonine-protein kinase 2 (Homo sapiens, UniProt Q5S007)
Sequence (Q5S007 whole entry): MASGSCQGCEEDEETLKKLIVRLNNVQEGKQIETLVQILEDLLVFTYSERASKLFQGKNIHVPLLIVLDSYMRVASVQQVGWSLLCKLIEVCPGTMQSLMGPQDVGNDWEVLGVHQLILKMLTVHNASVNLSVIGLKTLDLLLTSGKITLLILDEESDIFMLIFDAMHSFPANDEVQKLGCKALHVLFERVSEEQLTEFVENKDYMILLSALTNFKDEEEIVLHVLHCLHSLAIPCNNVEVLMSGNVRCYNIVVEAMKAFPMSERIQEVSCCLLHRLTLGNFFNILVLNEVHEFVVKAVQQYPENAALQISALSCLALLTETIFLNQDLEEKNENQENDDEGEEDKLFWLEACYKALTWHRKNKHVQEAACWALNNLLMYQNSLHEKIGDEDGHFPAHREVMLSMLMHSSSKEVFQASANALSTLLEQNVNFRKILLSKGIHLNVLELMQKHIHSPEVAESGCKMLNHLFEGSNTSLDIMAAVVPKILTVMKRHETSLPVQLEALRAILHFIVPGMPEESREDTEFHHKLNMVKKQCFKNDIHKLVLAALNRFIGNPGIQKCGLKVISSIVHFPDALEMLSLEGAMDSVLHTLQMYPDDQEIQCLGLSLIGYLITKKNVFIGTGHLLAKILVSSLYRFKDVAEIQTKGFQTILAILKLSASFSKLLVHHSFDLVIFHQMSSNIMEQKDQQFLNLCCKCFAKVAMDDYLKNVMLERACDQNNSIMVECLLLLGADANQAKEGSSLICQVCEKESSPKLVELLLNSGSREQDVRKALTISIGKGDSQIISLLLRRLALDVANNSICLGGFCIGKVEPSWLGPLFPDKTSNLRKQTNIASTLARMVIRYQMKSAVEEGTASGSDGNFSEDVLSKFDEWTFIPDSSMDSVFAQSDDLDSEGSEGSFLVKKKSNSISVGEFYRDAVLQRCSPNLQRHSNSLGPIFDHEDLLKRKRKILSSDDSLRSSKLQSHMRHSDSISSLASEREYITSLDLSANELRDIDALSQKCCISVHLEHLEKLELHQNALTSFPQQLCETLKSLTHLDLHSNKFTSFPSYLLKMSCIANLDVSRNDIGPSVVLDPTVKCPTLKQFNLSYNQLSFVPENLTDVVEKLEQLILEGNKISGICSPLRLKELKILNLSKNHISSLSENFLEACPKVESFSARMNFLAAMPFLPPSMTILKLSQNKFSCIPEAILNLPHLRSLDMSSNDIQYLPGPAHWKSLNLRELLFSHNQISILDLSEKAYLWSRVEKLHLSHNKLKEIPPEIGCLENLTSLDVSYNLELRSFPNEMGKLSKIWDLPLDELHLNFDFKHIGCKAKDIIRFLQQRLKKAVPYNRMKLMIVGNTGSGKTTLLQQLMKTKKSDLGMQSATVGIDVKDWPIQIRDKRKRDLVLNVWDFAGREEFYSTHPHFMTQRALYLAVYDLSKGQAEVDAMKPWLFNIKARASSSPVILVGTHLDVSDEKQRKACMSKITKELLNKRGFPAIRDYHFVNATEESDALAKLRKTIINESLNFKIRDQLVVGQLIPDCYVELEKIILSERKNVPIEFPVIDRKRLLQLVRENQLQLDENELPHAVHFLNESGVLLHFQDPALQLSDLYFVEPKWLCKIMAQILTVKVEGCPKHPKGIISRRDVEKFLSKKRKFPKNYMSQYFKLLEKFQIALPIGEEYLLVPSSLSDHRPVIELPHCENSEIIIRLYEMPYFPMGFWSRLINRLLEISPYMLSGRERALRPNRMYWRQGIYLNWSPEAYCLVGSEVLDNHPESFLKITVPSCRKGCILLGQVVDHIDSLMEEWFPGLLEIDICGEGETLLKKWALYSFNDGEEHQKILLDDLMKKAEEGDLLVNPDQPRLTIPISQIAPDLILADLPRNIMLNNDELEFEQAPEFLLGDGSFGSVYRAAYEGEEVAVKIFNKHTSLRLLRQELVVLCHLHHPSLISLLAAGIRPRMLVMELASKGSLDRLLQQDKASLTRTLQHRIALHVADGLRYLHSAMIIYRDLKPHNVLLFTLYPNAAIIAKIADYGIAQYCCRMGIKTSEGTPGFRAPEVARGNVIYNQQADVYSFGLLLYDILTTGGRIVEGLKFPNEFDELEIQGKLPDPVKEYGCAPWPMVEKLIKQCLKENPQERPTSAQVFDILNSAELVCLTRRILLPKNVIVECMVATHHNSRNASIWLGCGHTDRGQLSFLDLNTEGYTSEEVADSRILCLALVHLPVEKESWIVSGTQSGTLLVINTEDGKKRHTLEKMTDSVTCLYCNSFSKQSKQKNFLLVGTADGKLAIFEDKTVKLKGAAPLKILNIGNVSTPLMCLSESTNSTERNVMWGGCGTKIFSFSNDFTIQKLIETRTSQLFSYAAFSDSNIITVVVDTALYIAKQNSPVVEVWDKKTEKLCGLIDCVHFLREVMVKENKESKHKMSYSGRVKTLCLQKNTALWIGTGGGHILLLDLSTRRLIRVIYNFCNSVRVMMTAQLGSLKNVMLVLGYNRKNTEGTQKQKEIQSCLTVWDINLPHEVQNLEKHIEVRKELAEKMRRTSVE
pKi: −log10 of the molar value.
Label NO if pKi falls below 6; label YES in every other case.

Data request: Form field: pKi at least 6? Entry: CSc1sc(-c2cc[nH]n2)c2c1C(=O)NCC2
Data returned: NO

Data request: And the next one, CSc1sc(-c2cc[nH]n2)c2c1C(=O)NC1(CC1)C2 ?
Data returned: NO

Data request: Follow-up item: O=C1CCCc2c(-c3cc[nH]n3)sc(SC3CCCC3)c21
Data returned: YES

Data request: Also need O=C1CCCc2c(-c3cc[nH]n3)sc(NC3CCCC3)c21 , thanks.
Data returned: NO

Data request: For CCCSc1sc(-c2cc[nH]n2)c2c1C(=O)NC[C@@H]2CC then?
Data returned: YES

Data request: Repeat for the following molecule: CC(C)Sc1sc(-c2cc[nH]n2)c2c1C(=O)CC(C)(C)C2
Data returned: YES

Data request: Okay, and CCCc1sc(-c2cc[nH]n2)c2c1C(=O)CC(C)(C)C2 ?
Data returned: NO

Data request: Item: O=C1NCCc2c(-c3cc[nH]n3)sc(SC3CC3)c21
Data returned: YES

Data request: Param item: CCSc1sc(-c2cc[nH]n2)c2c1C(=O)CC(C)(C)C2
Data returned: YES

Data request: Next entry: CSc1sc(-c2cc[nH]n2)c2c1C(=O)NC1(CCC1)C2
Data returned: YES

Data request: Now this one: CC1(C)CC(=O)c2c(SC3CCCC3)sc(-c3cc[nH]n3)c2C1
Data returned: YES

Data request: Please give the result for CC1(C)CC(=O)c2c(SCC3CC3)sc(-c3cc[nH]n3)c2C1 too.
Data returned: YES

Data request: Further, for CSc1sc(-c2cc[nH]n2)c2c1C(=O)N(C)CC2 ?
Data returned: NO

Data request: What about O=C1NCCc2c(-c3cc[nH]n3)sc(SC3CCCC3)c21 ?
Data returned: YES

Data request: Would you kindly repeat that for CSc1sc(-c2cc[nH]n2)c2c1C(=O)NC(c1cccc(F)c1)C2 (racemic) ?
Data returned: NO

Data request: What do you get for CSc1sc(-c2cc[nH]n2)c2c1C(=O)NC1(CCCC1)C2 ?
Data returned: YES

Data request: Next molecule: CCCSc1sc(-c2cc[nH]n2)c2c1C(=O)NC[C@@H]2C
Data returned: YES
